# Experimental system: LuxR (Aliivibrio fischeri)
# Construct: a Δ-luxI derivative of V. fischeri ES114, in which the native lux operon behaves as the bioluminescent reporter; endogenous in cells; host or cells: V. fischeri ES114 (Δ-luxI)
# Sequence (P35327 whole entry): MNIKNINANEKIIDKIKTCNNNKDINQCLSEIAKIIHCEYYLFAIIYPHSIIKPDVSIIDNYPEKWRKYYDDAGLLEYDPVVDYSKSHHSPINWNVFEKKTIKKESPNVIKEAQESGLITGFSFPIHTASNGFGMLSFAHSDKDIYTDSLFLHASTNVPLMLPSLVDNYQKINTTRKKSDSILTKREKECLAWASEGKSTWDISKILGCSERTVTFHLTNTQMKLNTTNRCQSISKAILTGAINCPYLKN
# Experimental protocol: cell-based
# Type: cell-based, Vibrio fischeri
# Test parameters: 5 μM synthetic ligand against 5 μM OHHL; V. fischeri ES114 (Δ-luxI); normalized to OHHL
Listed here: items and their measured V. fischeri-LuxR Inhibition [%].
The reply should be a number in %, with the unit left off.

Answered cases to consult:
{"columns": ["Molecule", "Recorded number"],
 "data": [
  ["O=C(NC1CCOC1=O)c1ccc(N=Nc2ccccc2)cc1 (centres unmarked)", 46],
  ["CCCCCCCCCCCS(=O)(=O)N[C@H]1CCOC1=O", 74]
]}

Shift focus to the following entry.
Readout V. fischeri-LuxR Inhibition [%] for "O=C(Cc1ccccc1[N+](=O)[O-])N[C@H]1CCOC1=O" , test system LuxR (Aliivibrio fischeri), was 23

###

# Experimental system: TraR (Agrobacterium tumefaciens, UniProt P33905)
# Construct: These strains lack their AHL synthase (I) genes, but retain their native R genes; endogenous in cells; host or cells: A. tumefaciens WCF47 (Δ-traI) with PtraI-lacZ plasmid pCF372
# Sequence (P33905 whole entry): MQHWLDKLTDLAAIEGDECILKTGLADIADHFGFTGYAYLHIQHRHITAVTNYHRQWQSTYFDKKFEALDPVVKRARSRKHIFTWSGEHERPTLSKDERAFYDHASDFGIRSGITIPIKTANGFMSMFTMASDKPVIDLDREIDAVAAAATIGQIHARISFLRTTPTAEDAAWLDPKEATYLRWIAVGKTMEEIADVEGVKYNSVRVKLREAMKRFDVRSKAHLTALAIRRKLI
# Experimental protocol: cell-based
# Test parameters: 10 μM synthetic ligand against 100 nM OOHL; A. tumefaciens WCF47 (pCF372); normalized to OOHL
Listed here: items and their measured A. tumefaciens-TraR Inhibition [%].
The reply should be a number in %, with the unit left off.

Answered cases to consult:
{"columns": ["Compound", "Measure unit", "A. tumefaciens-TraR Inhibition [%]"],
 "data": [
  ["O=C(CCCc1ccccc1)N[C@@H]1CCOC1=O [A26]", "%", 31],
  ["O=C(/C=C/c1ccccc1)N[C@H]1CCOC1=O [A19]", "%", 7]
]}

Shift focus to the following entry.
Readout A. tumefaciens-TraR Inhibition [%] for CCCCCCCCCCCS(=O)(=O)N[C@H]1CCOC1=O [A16] , test system TraR (Agrobacterium tumefaciens, UniProt P33905), was 29

###

# Experimental system: LasR (Pseudomonas aeruginosa)
# Construct: expressed in transfected cells; host or cells: E. coli DH5α (pJN105L pSC11), arabinose-induced
# Sequence (P25084 whole entry): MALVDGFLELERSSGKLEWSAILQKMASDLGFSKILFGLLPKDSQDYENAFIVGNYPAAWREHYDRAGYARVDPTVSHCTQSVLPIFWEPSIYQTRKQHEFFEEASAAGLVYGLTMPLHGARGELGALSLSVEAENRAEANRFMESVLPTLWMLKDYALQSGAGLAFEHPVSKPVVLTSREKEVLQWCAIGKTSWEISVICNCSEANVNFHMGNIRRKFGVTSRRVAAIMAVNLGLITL
# Experimental protocol: cell-based
# Format: cell-based
# Test parameters: 5 μM synthetic ligand against 7.5 nM OdDHL; E. coli DH5α (pJN105L pSC11); normalized to OdDHL
Measured endpoint: E. coli-LasR Inhibition [%] (%)
The reply should be a number in %, with the unit left off.

Answered cases to consult:
{"columns": ["Compound", "Recorded number"],
 "data": [
  ["O=C(Cc1ccccc1I)N[C@H]1CCOC1=O", 17],
  ["COc1cc(C(C)=O)ccc1OCC(=O)N[C@H]1CCOC1=O", 18],
  ["CC(C)(C)OC(=O)NCCCCC(=O)N[C@H]1CCOC1=O", 15]
]}

Readout E. coli-LasR Inhibition [%] for CCCCCC(=O)CC(=O)N[C@H]1CCOC1=O [compound 1, N-(3-oxo-octanoyl)-L-homoserine lactone, reference compound] , test system LasR (Pseudomonas aeruginosa), was 50

###

# Experimental system: TraR (Agrobacterium tumefaciens, UniProt P33905)
# Construct: These strains lack their AHL synthase (I) genes, but retain their native R genes; endogenous in cells; host or cells: A. tumefaciens WCF47 (Δ-traI) with PtraI-lacZ plasmid pCF372
# Experimental protocol: cell-based
# Test parameters: read-out: A. tumefaciens-TraR Inhibition [%], 10 μM synthetic ligand against 100 nM OOHL; A. tumefaciens WCF47 (pCF372); normalized to OOHL
Measured endpoint: inhibition at 10 µM

Answered cases to consult:
{"columns": ["Compound", "Measured endpoint", "Result"],
 "data": [
  ["O=C(Cc1ccc(-c2ccccc2)cc1)NC1CCOC1=O (stereo not drawn)", "inhibition at 10 µM", "~70%"],
  ["O=C(Cc1ccc([N+](=O)[O-])cc1)NC1CCOC1=O (stereo not drawn)", "inhibition at 10 µM", "~90%"]
]}

Shift focus to the following entry.
Entry O=C(Cc1ccc(Br)cc1)N[C@H]1CCOC1=O [compound 8, reference compound] , inhibition at 10 µM reported as ~90%
